Reported PBM binding z-score values are given for each entry in this list.
# Tested on: THRa homodimer (NR concentration 90 nM)
# assay overview: PBM binding z-score (relative to random genomic background probes); higher = stronger binding; sequences stand for … in GC…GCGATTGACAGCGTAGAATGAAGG
measured endpoint: PBM binding z-score

1. TCATATAGGTAAACCGGTGAAAGTCCGTAAGTTA = 0.203
2. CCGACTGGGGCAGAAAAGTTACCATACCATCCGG = -0.509
3. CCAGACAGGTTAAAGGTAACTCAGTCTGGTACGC = -0.0486
4. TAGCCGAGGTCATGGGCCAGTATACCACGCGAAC = 2.71
5. CACCCTAGGTCAGGGCCAGTATAGGAGGAACGTT = 0.911
6. CCTACTGGGCCAAGAAGGTCATTGATGCCGATAA = 0.355
7. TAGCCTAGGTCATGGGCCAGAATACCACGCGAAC = 1.07
8. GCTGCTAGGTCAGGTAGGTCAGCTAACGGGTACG = 0.866
9. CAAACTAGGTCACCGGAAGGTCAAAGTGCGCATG = 3.05
10. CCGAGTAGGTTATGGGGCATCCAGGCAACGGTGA = 0.159
11. TTACCAAGGTGAGCTGAGGTCGTCGATCCAACTC = 2.4
12. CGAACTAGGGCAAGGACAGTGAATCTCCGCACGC = 0.786
13. CGAACTAGGTCATCGACAGGACAGTGAATAGTAA = 0.98
14. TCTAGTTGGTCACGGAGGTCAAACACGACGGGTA = 2.02
15. CCTCTGAGGACAGAAGGTCAGAGCTGTCCGCTTT = 1.58
16. CAAACTAGGTCACCGGAAGGTCAAAGGCCGCATG = 2.79
17. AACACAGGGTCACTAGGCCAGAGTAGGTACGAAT = 1.02
18. CGAACGAGGGCATGAGTTGATAGCCAATGCCGAT = -0.039
19. TCTTGTTGGTCAAAGGTCACACACTCGAAATGCG = 2.56
20. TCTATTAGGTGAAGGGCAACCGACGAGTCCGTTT = 0.828
21. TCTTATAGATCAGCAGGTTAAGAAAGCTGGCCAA = -0.656
22. TCTTGTAGATCAAGCAGGTTAAAAAAGCCTGAGT = -0.577
23. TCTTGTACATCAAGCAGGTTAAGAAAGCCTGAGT = -0.0584
24. ACTAGCAAGCCAAGTTTGGGTCACTCAAACAAAG = 0.807
25. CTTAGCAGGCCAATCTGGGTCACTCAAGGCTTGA = 0.497
26. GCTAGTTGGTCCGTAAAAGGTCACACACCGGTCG = 1.82
27. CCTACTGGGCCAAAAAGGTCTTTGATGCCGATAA = -0.671
28. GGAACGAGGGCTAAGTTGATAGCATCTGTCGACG = -0.828
29. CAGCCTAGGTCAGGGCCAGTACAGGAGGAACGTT = 0.539
30. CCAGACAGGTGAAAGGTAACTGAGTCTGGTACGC = -0.381
31. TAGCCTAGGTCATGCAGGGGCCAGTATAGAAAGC = 0.474
32. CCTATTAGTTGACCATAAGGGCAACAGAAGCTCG = 1.15
33. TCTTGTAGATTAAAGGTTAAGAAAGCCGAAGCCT = -0.228
34. ACTAGCAGGCCCAGGGTCACTCAAGATTAGTCCG = 1.17
35. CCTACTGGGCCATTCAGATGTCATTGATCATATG = -0.95
36. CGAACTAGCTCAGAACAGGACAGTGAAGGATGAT = -0.29
37. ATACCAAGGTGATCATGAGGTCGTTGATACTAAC = 2.94
38. TCTAATAGTTGATTAGGGCAACCGAAACAGCGGA = -0.0484
39. TCAGATAGGTAATACAGGTGAAAGTCGGCATCTA = 0.181
40. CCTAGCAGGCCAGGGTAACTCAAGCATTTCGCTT = -0.445
41. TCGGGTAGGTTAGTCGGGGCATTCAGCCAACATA = 1.21
42. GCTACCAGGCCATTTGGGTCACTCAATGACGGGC = 1.39
43. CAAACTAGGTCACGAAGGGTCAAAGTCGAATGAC = 2
44. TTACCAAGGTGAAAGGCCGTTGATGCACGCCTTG = 0.31
45. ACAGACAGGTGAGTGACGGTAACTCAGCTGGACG = -0.727
46. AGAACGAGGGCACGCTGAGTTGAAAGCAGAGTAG = -0.233
47. CAAACTAGGTCCCCGGAAGGTCAAAGTCCGCATG = 1.33
48. CTGACTGGGGCAGAAAGGTTACCATACCATCCGG = -0.00368
